Protocol: Clearance in cynomolgus monkey at 0.4 mg/kg, iv by LC/MS/MS analysis
Format: ADME, organism-based, Macaca fascicularis
Set-up: dose 0.4 mg/kg, route intravenous
Test settings: in vivo
Catalogue of compounds with associated clearance
All answers are understood in mL/min/kg, so give the number only.

Example cases with answers are listed next.
The recorded clearance for entry C[C@@H](O)c1nc2cnc3[nH]ccc3c2n1[C@H]1CC[C@H](C#N)CC1 equals 18

Please fill in: clearance reported for C[C@@H](O)c1nc2cnc3[nH]ccc3c2n1[C@H]1CC[C@H](CCC#N)CC1 = 29

Continuing:
Entry C[C@@H](O)c1nc2cnc3[nH]ccc3c2n1[C@H]1CCCOC1 ; clearance = 19

----------
Protocol: AUC in Beagle dog at 2 mg/kg, po by LC/MS/MS analysis
Assay type: ADME, organism-based, Canis lupus familiaris
Parameters: dose 2 mg/kg, route oral
Test settings: plasma
Reported metric: log10 of AUC (log10 of the value in µM·h)
# log10 transformed; quantity=AUC; unit=µM·h

# annotated cases, reported log10 of AUC shown
response.value for C[C@@H](O)c1nc2cnc3[nH]ccc3c2n1[C@H]1CCCOC1 (field: log10 of AUC) = 1.82

So, C[C@@H](O)c1nc2cnc3[nH]ccc3c2n1[C@H]1CC[C@H](C#N)CC1 ? Its log10 of AUC was 0.92

Lab note: C[C@@H](O)c1nc2cnc3[nH]ccc3c2n1[C@H]1CC[C@H](CC#N)CC1 gave log10 of AUC of 1.05

For record C[C@@H](O)c1nc2cnc3[nH]ccc3c2n1[C@H]1CC[C@H](CCC#N)CC1 the listed log10 of AUC is 0.63

According to the records, this molecule C[C@@H](O)c1nc2cnc3[nH]ccc3c2n1[C@H]1CC[C@@H](NCC(F)(F)F)C1 displays log10 of AUC of 0.95

--- query ---
Documented log10 of AUC of C[C@@H](O)c1nc2cnc3[nH]ccc3c2n1[C@H]1CC[C@H](NCC(F)(F)F)CC1 : 1.00

----------
Protocol: Thermodynamic solubility in aqueous buffer at pH 2
Type: physicochemical
Test settings: read-out: Therm_solubility
# solubility thermodynamic values compiled below

Take a look at these entries with their results.
molecule C[C@@H](O)c1nc2cnc3[nH]ccc3c2n1[C@H]1CC[C@@H](NCC(F)(F)F)C1 , solubility thermodynamic observed: > 4 mM

Quick note, solubility thermodynamic for C[C@@H](O)c1nc2cnc3[nH]ccc3c2n1[C@H]1CC[C@H](CC#N)CC1 landed at > 4 mM

---
According to the records, this molecule C[C@@H](O)c1nc2cnc3[nH]ccc3c2n1[C@H]1CC[C@H](CCC#N)CC1 displays solubility thermodynamic of > 4 mM

Per the records, this molecule ( C[C@@H](O)c1nc2cnc3[nH]ccc3c2n1[C@H]1CCCOC1 ) has solubility thermodynamic equal to > 4 mM

Consider C[C@@H](O)c1nc2cnc3[nH]ccc3c2n1[C@H]1CC[C@H](C#N)CC1 . Its measured solubility thermodynamic is > 4 mM

For this molecule ( C[C@@H](O)c1nc2cnc3[nH]ccc3c2n1[C@H]1CC[C@H](NCC(F)(F)F)CC1 ), measured solubility thermodynamic is 3.9 mM

----------
Tyrosine-protein kinase JAK1 (Homo sapiens, UniProt P23458): recorded pEC50 for assorted molecules
Sequence (P23458 whole entry): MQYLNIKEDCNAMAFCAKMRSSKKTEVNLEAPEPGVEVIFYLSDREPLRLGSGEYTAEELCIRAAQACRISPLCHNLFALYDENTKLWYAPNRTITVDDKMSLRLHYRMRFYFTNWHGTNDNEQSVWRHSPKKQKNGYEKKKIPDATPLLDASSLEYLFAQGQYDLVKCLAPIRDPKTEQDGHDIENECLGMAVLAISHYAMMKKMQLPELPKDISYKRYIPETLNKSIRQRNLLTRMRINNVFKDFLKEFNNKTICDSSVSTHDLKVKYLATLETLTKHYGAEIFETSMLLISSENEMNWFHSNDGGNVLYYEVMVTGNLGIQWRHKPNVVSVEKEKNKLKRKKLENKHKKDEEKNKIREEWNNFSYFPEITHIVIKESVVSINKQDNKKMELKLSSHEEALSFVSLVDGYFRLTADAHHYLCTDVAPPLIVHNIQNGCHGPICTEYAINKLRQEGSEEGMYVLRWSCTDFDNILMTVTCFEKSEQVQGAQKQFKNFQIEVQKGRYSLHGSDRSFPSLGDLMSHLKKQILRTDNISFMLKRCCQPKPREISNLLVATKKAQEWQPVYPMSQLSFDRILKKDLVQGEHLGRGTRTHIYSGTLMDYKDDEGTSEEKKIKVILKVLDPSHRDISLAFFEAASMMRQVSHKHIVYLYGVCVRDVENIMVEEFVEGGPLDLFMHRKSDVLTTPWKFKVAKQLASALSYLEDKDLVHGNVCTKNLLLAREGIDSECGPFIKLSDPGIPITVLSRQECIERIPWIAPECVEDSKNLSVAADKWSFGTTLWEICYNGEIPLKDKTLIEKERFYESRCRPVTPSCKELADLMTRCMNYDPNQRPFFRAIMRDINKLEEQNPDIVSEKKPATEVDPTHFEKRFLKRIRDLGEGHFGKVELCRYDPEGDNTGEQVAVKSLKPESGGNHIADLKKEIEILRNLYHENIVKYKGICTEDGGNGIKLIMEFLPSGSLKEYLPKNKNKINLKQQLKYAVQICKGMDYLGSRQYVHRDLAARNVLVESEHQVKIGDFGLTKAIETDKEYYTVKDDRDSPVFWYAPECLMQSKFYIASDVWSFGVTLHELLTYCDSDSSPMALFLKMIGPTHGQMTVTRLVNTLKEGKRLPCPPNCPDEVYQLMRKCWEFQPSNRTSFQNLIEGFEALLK
Lab note: report pEC50 as minus log10 of the concentration in molar units, number only.

Study these solved cases before continuing.
The recorded pEC50 for entry C[C@@H](O)c1nc2cnc3[nH]ccc3c2n1[C@H]1CC[C@@H](C#N)CC1 equals 7.31

Briefly, pEC50 measured for OCCc1nc2cnc3[nH]ccc3c2n1C1CCCCC1 : 6.89

Continuing:
Form: molecule = C[C@@H](O)c1nc2cnc3[nH]ccc3c2n1[C@H]1CC[C@H](CC#N)CC1 ; pEC50 = 8.24

The reported pEC50 of the molecule OCc1nc2cnc3[nH]ccc3c2n1C1CCCCC1 was 7.19

CC(C)(O)c1nc2cnc3[nH]ccc3c2n1C1CCCCC1 has a reported pEC50 of 6.48

Noted for C[C@@H](O)c1nc2cnc3[nH]ccc3c2n1[C@H]1CCCOC1 : its pEC50 reads 6.96
